Sourced from PubChem BioAssay

assay: small-molecule binders of probe aInhba, primary screen, biochemical, small-molecule microarray, 635/667 nm fluorescence (AID 1148); conditions: higher = more signal;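 note: score merges 667nm spot fluorescence with signal-to-noise for antibody binding to printed compounds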
Catalogue of molecules with associated composite z-score

| structure-as-smiles | composite z-score |
| --- | --- |
| COC(=O)[C@@H]1CC[C@H](C)[C@@H](c2ccc(Br)cc2)N1 | 0.0705 |
| CO[C@@H]1COC(=O)[C@@H]2CCCN2C(=O)[C@@H](C)COC(=O)CCC[C@H]1C | -0.153 |
| CCN1C(=O)[C@H]2[C@H]3[C@H](O)[C@H](O)CC(=NO[C@@H]4O[C@H](COC(C)=O)[C@@H](OC(C)=O)[C@H](OC(C)=O)[C@H]4OC(C)=O)[C@@H]3CC[C@H]2C1=O | -0.0221 |
| CO[C@@H]1C=CCC(=O)N[C@@H](C)C(=O)OC[C@@H](OC)[C@H](C)C=CCC(=O)OC[C@H]1C | -0.157 |
